- Test system: SF-268 CNS
- PROTOCOL DETAILS: NCI tumour cell line growth inhibition, 48 h
Listed compounds paired with reported TGI

Recorded TGI, per entry:
>>> recorded_value("CN(C)CCNC(=O)c1ccc2ccc3cccnc3c2n1")
"54.5 µM"
>>> recorded_value("O=C1c2ccn(CCCCN3CCOCC3)c2C(=O)c2c1c(O)c1ccccc1c2O")
"30.9 µM"

Inquiry: Field request: TGI | item: N=C(N)/N=C(/C=C/c1ccccc1)CC1OC(=O)c2ccccc21 (stereo not drawn)
Reply text: > 100 µM

Inquiry: Which TGI value belongs to CC1=CC[C@@H]2[C@@H](CC[C@@]2(C)O)C(C)(C)[C@H]1CC[C@@H]1[C@@]2(C)CCC(=O)C(C)(C)O[C@@H]2CC[C@]1(C)O ?
Reply text: > 100 µM

Inquiry: Quick one: TGI for COC(=O)OC[C@H]1O[C@@H](n2cc(C)c(=O)[nH]c2=O)CC1OC(=O)OC (stereo partly drawn) ?
Reply text: > 100 µM

Inquiry: Look up TGI for this compound: ClCCN(CCCl)Cc1ccc(Nc2ccnc3cc(Cl)ccc23)cc1
Reply text: 5.68 µM

Inquiry: Query (compound): CCCCCCCCCCCCCCCC[N+](C)(C)Cc1ccc(C[N+](C)(C)CCCCCCCCCCCCCCCC)cc1 ; field requested: TGI
Reply text: > 100 µM

Inquiry: Need TGI of CC(C)CN1CN(c2ccccc2)C2(CCN(CC(C)(c3ccc(F)cc3)C3OCCO3)CC2)C1=O (stereo not drawn) , thanks.
Reply text: 30.1 µM

Inquiry: Record request: TGI value, item COc1ccc(-c2nc3ncccn3c2-c2ccc(S(C)=O)cc2)cc1 (stereo not drawn)
Reply text: > 100 µM

Inquiry: Quick one: TGI for C1=C2SSC3=CC=C(SSc4ccc(s4)SSC4=CC=C(SSC(=C1)S2)S4)S3 ?
Reply text: > 100 µM

Inquiry: # query: TGI of entry CCCC[C@@H]1NC(=O)[C@H](CCCCN)NC(=O)[C@H](CCCNC(=N)N)NC(=O)[C@H](CC(C)C)NC(=O)[C@@H](NC(=O)[C@H](Cc2cccc(Cl)c2)NC(=O)[C@@H]2CCCN2C(=O)[C@@H](NC(C)=O)C(C)C)CCSSC[C@@H](C(=O)N[C@@H](CCCCN)C(=O)N2CCC[C@H]2C(=O)N2CCC[C@H]2C(=O)N[C@@H](CCC(=O)O)C(N)=O)NC(=O)[C@H](Cc2ccccc2)NC(=O)[C@H](CO)NC(=O)[C@H](C)NC(=O)[C@@H]2CCCN2C1=O
Reply text: > 50 µM

Inquiry: I would be grateful if you could share the reported TGI for CC(C)(C)c1nc2c(o1)C(=Nc1ccccc1)c1ccccc1C2=O .
Reply text: 21 µM

Inquiry: Need TGI, item CCOC(=O)c1ccc(NC2Oc3cc4c(cc3C(c3cc(OC)c(OC)c(OC)c3)C2C)OCO4)cc1 (stereo not drawn)
Reply text: > 40.8 µM

Inquiry: Any idea what its TGI is? The compound is O=C(CCSC(CC(=O)c1ccc(Cl)cc1)c1ccc(Cl)cc1)Nc1ccc(Cl)cc1 (stereo not drawn)
Reply text: 29 µM

Inquiry: Fill in: TGI of NC1=CN(CCCO)C2=N/C(=C\c3ccco3)C(=O)N12 is ___
Reply text: > 100 µM

Inquiry: // returns reported TGI for input CSc1n[nH]c(N)c1C(=O)Nc1ccc(Cl)cc1
Reply text: > 100 µM

Inquiry: What value of measured TGI is listed for CC(NC(=O)c1ccccc1)C(=O)N(Cc1ccccc1)Cc1ccccc1 (stereo not drawn) ?
Reply text: > 100 µM

Inquiry: Using the record for COc1c2nc(CCl)n(C)c(=O)c2c(OC)c2c(=O)n(C)c(CCl)nc12 , report its TGI.
Reply text: 4.52 µM

These measurements were taken from PubChem BioAssay (NCI).
